Where do the numbers come from? From patent US11939403B2.

Assay Summary: Oral bioavailability in mice
Type: in vivo
Condition Notes: mouse, in vivo, po, 30 mg/kg, mouse, oral dose 30 mg/kg, no inhibitors; based on AUC at 1 mg/kg IV dose; read-out: BA
Square brackets hold non-standard residues; d marks the D form. Peptide text beside a SMILES is read from it. Gly(N-CH2-oxan-4-yl) = O=C(O)CNCC1CCOCC1; NMeA = CN[C@@H](C)C(=O)O; NEtG = CCNCC(=O)O

>  <Molecule>
CCN1CC(=O)N[C@@H](CC(C)C)C(=O)N(C)[C@@H](C)C(=O)N[C@@H](CC(C)C)C(=O)N2CCC[C@@H]2C(=O)N(CC2CCOCC2)CC(=O)N[C@@H](CC(C)C)C(=O)N(C)[C@@H](C)C(=O)N[C@@H](C)C(=O)N2CCC[C@@H]2C1=O [Compound A03] (cyclo([NEtG]L[NMeA]L[dP][Gly(N-CH2-oxan-4-yl)]L[NMeA]A[dP]))

>  <bioavailability / %>
11.5

$$$$
